Entries annotated with measured Change in KD to t = 0
# study-target: T1, Human VEGF 165 (human, UniProt P15692-4 27-191)
# T1 construct: Loaded on the BLI probe as the ligand; also called BLI ligand Human VEGF 165 (Avi tag, R&D Systems AVI-293-050); not shown: Avi tag
# T1 sequence (P15692 other isoform, or with tags, fused parts or gaps limits assumed): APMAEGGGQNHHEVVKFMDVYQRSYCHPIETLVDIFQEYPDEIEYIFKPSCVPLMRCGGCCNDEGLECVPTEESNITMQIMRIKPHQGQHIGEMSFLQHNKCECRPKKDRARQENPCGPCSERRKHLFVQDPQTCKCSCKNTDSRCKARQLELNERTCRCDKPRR
# experimental-protocol: BLI; KD after 14 days at 37 °C against KD at t = 0
Give the number; fold is assumed, so skip it.

Examples with answers:
// Change in KD to t = 0 lookup, binder = Conjugate 17 (anti-VEGF VHH SEQ ID NO: 91 on hyaluronic acid, intermediate 1-7) (VHH, peptide bound through the organic linker MP2H to hyaluronic acid (830 kDa); site of attachment not stated, Multivalent peptide-hyaluronic acid conjugate (MVP); peptide valency 90; Method 1 intermediate; also called BI VHH anti-VEGF MVP) VHH: DVQLVESGGGLVQPGGSLRLSCAASGRTFSSYSMGWFRQAPGKEREFVVAISKGGYKYDAVSLEGRFTISRDNAKNTVYLQINSLRPEDTAVYYCASSRAYGSSRLRLADTYEYWGQGTLVTVSS , result: 228

Looking up Conjugate 23 (anti-VEGF VHH SEQ ID NO: 91 with aH linker SEQ ID NO: 21 on hyaluronic acid, intermediate 1-11) (VHH, C-terminal Cys of the peptide linker bound by its thiol to the maleimide of the organic linker MP2H on hyaluronic acid (830 kDa), Multivalent peptide-hyaluronic acid conjugate (MVP); peptide valency 33; Method 1 intermediate; also called BI VHH anti-VEGF MVP) VHH: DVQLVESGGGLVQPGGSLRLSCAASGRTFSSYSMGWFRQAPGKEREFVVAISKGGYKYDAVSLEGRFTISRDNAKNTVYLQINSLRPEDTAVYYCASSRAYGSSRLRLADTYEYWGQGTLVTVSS , I see its Change in KD to t = 0 listed as 1950

Shifting focus to the binder that follows.
Item: Conjugate 21 (anti-VEGF VHH SEQ ID NO: 91 with aH linker SEQ ID NO: 21 on hyaluronic acid, intermediate 1-9) (VHH, C-terminal Cys of the peptide linker bound by its thiol to the maleimide of the organic linker MP2H on hyaluronic acid (830 kDa), Multivalent peptide-hyaluronic acid conjugate (MVP); peptide valency 51; Method 1 intermediate; also called BI VHH anti-VEGF MVP) VHH: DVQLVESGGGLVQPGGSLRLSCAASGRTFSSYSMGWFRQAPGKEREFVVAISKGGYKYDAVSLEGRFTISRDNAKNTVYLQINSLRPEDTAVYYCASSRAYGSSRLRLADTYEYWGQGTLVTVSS | Change in KD to t = 0: 1140
